test protocol: NIH3T3 cell viability loss – ATP luminescence, mouse fibroblasts, counter-screen, dose response (AID 2010);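 further: cells exposed to compound for about 90 hours before reading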
Assay type: functional, cell-based
The source made the active and inactive calls.
endpoint name: EC50

As a guide, the following entries are already answered.
- compound: "CC1=NN(c2nc(-c3ccc(C)cc3)cs2)C(=O)C1N=Nc1ccccc1O (configuration not stated)"
  EC50: "> 60 µM (not active)"
- compound: "O=C(Cc1cn(Cc2cccc(Cl)c2)c2ccccc12)N1CCCCCC1"
  EC50: "> 60 µM (not active)"
- compound: "COc1ccc(SCCc2ccncc2)cc1"
  EC50: "> 60 µM (not active)"

Exam item: Consider the compound shown here: CC(=O)Nc1ccc(Nc2cc(C(C)C)nc3c(-c4ccccc4)c(C)nn23)cc1 What is its recorded EC50?
Marked response: 10.4 µM (active)

Exam item: And for COc1ccc(CNCCC(c2ccc(OC(C)C)cc2)C(C)C)cc1OC (configuration not stated) ?
Marked response: 9.8 µM (active)

Exam item: Try the compound Cc1ccc(OCC(O)CNCc2ccc(F)cc2)cc1 (configuration not stated)
Marked response: > 60 µM (not active)

Exam item: Then CCCOc1cc(N(CC)CC)ccc1/C=C(/C#N)c1nc2cc(C)ccc2[nH]1 ?
Marked response: > 60 µM (not active)

====

subject of test: Peroxisome proliferator-activated receptor gamma/Nuclear receptor coactivator 2 (Homo sapiens)
Sequence (P37231 whole entry): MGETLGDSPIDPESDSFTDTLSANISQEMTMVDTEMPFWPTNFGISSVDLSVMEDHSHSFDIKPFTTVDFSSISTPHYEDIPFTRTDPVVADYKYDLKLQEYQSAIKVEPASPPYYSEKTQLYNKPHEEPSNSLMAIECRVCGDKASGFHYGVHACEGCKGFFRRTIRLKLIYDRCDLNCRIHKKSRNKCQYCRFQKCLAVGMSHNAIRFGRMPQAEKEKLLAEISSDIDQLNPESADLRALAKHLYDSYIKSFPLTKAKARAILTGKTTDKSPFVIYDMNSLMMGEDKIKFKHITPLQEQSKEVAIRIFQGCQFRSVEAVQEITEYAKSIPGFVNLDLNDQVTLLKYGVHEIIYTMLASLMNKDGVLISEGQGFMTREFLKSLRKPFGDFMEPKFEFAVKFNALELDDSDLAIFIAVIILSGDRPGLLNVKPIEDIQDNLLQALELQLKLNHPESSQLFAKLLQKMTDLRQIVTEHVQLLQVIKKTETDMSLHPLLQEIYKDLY
Sequence (Q15596 whole entry, further chain): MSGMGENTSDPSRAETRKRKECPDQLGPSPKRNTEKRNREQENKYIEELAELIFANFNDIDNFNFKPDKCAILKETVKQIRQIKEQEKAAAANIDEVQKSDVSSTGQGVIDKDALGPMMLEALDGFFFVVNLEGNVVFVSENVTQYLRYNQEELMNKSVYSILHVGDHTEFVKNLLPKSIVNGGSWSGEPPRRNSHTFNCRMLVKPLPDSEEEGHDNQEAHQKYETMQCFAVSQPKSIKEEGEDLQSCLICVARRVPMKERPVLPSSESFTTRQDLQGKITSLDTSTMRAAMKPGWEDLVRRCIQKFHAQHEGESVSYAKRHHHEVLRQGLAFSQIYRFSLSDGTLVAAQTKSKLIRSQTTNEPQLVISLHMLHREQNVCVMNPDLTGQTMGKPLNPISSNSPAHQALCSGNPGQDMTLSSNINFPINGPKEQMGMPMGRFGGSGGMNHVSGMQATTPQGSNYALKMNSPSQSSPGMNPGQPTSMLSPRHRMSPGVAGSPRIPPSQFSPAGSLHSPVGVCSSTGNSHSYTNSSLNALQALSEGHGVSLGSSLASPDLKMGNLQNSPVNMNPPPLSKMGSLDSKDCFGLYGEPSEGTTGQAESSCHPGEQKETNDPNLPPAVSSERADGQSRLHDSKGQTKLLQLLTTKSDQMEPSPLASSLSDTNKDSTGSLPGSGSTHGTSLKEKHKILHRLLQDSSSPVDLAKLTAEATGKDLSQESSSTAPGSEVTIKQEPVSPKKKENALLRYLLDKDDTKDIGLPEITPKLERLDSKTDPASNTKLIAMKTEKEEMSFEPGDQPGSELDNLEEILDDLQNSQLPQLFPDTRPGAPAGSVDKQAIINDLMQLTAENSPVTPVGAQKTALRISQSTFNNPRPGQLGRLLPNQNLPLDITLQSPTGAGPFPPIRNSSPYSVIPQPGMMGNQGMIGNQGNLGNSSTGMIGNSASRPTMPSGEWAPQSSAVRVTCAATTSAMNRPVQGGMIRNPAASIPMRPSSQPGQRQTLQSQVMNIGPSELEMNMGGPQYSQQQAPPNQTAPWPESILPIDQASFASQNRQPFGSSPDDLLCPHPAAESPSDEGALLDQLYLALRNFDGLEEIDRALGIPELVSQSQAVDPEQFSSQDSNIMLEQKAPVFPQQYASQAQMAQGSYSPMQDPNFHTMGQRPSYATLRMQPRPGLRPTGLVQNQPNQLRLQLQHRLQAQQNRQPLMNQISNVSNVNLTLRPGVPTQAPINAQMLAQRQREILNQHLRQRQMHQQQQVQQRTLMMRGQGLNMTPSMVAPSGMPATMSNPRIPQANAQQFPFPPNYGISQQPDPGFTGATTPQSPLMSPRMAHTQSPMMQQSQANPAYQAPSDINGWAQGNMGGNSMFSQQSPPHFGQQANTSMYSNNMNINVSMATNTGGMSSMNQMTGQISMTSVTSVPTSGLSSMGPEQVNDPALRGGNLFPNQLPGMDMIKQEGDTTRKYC
test protocol: TR-FRET dose response biochemical High Throughput Screening assay for agonists of the steroid receptor coactivator 2 (SRC-2) recruitment by the peroxisome proliferator-activated receptor gamma (PPAR gamma): non-selective agonists. [Related pubchem assays: 1297, 1032 ]
Type: functional
endpoint name: EC50

- compound: "Cn1c(=O)cc(SCC(=O)NCC2CCCO2)c2ccc(Cl)cc21 (stereo not given)"
  meas value: "> 26.5 µM (not active)"

Exam item: Find the recorded EC50 belonging to Clc1cccc(-c2ccc(/C=N/c3ccc(N4CCOCC4)cc3)o2)c1 and report it.
Marked response: 28.6 µM (not active)

====

subject of test: Heat shock factor protein 1 (Mus musculus, UniProt P38532)
Sequence (P38532 whole entry): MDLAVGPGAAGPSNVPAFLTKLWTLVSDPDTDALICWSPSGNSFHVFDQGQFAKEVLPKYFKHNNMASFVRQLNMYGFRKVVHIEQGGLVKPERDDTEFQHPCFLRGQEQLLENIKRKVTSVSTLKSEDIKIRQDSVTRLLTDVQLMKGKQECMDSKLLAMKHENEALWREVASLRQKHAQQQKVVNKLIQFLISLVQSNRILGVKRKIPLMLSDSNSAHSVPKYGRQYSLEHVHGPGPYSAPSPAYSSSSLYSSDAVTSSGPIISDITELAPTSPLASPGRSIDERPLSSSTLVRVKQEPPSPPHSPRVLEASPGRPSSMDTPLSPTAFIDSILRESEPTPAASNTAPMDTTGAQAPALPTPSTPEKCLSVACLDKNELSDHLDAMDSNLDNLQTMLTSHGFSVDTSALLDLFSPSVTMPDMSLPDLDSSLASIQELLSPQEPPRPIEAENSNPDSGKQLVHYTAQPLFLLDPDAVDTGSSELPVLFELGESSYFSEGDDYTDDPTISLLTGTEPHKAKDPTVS
test protocol: enhancement of HSF1-driven luciferase signal – cell-based, NIH3T3, luminescence, dose retest, confirmation (AID 435004);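 further: stress induced by proteasome inhibitor MG132 added 30 min after compound; luciferase reporter driven by HSF1 response element in NIH3T3 cells; actives raise luminescence as potentiators of the MG132 stress response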
Format: functional
Activity calls are given as the source filed them.
Catalogue of molecules with associated EC50

Illustrative cases are given below, each with its answer.
- molecule: "Cc1ccc(S(=O)(=O)NCCOc2nc(N3CCOCC3)nc(N3CCOCC3)n2)cc1"
  EC50: "> 260 µM (inactive)"
- molecule: "CN(CCc1ccccc1)C(=O)c1cc(COc2cccc(C(F)(F)F)c2)on1"
  EC50: "> 260 µM (inactive)"
- molecule: "C=CCC(NCc1ccco1)c1ccc(OC)c(OC)c1 (configuration not stated)"
  EC50: "> 260 µM (inactive)"
- molecule: "Cc1ccc(C)c(NC(=O)C2CC(O)CN2C(=O)Oc2ccccc2)c1 (configuration not stated)"
  EC50: "> 260 µM (inactive)"
- molecule: "COc1ccc(CCNc2ncnc3c2c(C)c(C)n3CCO)cc1OC"
  EC50: "> 260 µM (inactive)"

Exam item: Item under review: COc1ccc(C2C3=C(CCCC3=O)N(CC(=O)O)C3=C2C(=O)CCC3)cc1Cl . Reported EC50?
Marked response: > 260 µM (inactive)

Exam item: Item: O=C(O)c1ccc(S(=O)(=O)/N=C2\C=C(Nc3ccccc3F)C(=O)c3ccccc32)cc1
Marked response: > 260 µM (inconclusive)

Exam item: Continue with NC(=O)c1c(NC(=O)Cc2ccccc2)sc2c1CCN(Cc1ccccc1)C2
Marked response: > 260 µM (inactive)

Exam item: Another: CN1c2ccccc2C(O)=C(C(S)=Nc2ccc(Cl)cc2)S1(=O)=O
Marked response: > 260 µM (inconclusive)

====

IC50 overview
subject of test: Prothrombin (Bos taurus)
test protocol: thrombin protease inhibitors – biochemical, fluorescence polarization, uHTS hits, dose response (AID 602369)
Assay type: functional
Calls of active or inactive are those of the source.

Exam item: // IC50 lookup, key: N#C/C(=C\C1=C(N2CCOCC2)C(=C\c2ccc(Cl)cc2)/CC1)C(=O)Nc1ccccc1F
Marked response: 17 µM (active)

Exam item: Same thing, different compound: COc1ccc(OC)c(N2C(=O)/C(=C/Nc3c(C)n(C)n(-c4ccccc4)c3=O)C(=O)NC2=S)c1
Marked response: 51.9 µM (active)

====

test protocol: Luminescence Cell-Based Dose Confirmation HTS to Identify Activators of 5'UTR Stem-Loop Driven Alpha-Synuclein mRNA Translation in H4 Neuroglioblastoma Cells. [Related pubchem assays: 1829 (Project Summary), 1814 (Primary HTS)]
Type: functional
The source made the active and inactive calls.
endpoint name: EC50

Use these answered entries as a reference point.
- compound: "O=c1c2c3nc4ccccc4nc3n(/N=C/c3ccccn3)c2ncn1-c1ccccc1"
  EC50: "> 120 µM (not active)"
- compound: "Cc1ccc(NC(=O)CC2SCCNC2=O)cc1Cl (stereo unspecified)"
  EC50: "14.5 µM (active)"
- compound: "Clc1ccc(-c2cnc(Oc3ccccc3)nc2)cc1"
  EC50: "2.63 µM (active)"
- compound: "CN(C)c1ccc(-c2sc(Nc3ccccc3)n[n+]2-c2ccc(F)cc2)cc1"
  EC50: "> 120 µM (not active)"
- compound: "Cc1n[nH]c(C)c1S(=O)(=O)N1CCCC(C(=O)Nc2ccc(Br)cc2)C1 (stereo unspecified)"
  EC50: "> 120 µM (not active)"

Exam item: Bench note: what EC50 did COc1ccc(OC)c(/C=N/c2ccccc2-c2nc3ccccc3[nH]2)c1 show?
Marked response: 13.1 µM (active)

====

subject of test: Caspase-3 (Homo sapiens)
Format: functional
The source made the active and inactive calls.
endpoint name: IC50

Consider the reported IC50 for these compounds:
- smiles: "O=C(Nc1ccc(Cl)cc1)C1=Cc2ccccc2OC1"
  subject of test: "Caspase-3 (Homo sapiens)"
  IC50: "26.5 µM (active)"
- smiles: "COc1cccc(-c2nc3ccc([N+](=O)[O-])cc3o2)c1"
  subject of test: "Caspase-3 (Homo sapiens)"
  IC50: "2.52 µM (active)"
- smiles: "Cc1ccc(NC2=CC(=O)C(=O)c3ccccc32)cc1"
  subject of test: "Caspase-3 (Homo sapiens)"
  IC50: "31 µM (active)"

Exam item: Data request, read-out IC50, for COc1ccc(-c2csc(NC(=O)c3ccco3)n2)cc1
Marked response: 31.1 µM (active)

Exam item: Next up: C[N+](=N[N-]c1cccc([N+](=O)[O-])c1)c1ccccc1
Marked response: 29.7 µM (active)

====

subject of test: UniProt:P9WHJ3
test protocol: Fluorescence Cell-Free Homogeneous Dose Retest to Identify Inhibitors of RecA-Intein Splicing Activity. [Related pubchem assays (depositor defined):AID2097, AID2223, AID489010, AID492950]
Assay type: functional
The source made the active and inactive calls.
endpoint name: EC50

# annotated cases, reported EC50 shown
- compound: "CC1=NNC(=O)C1Cc1ccc(F)cc1 (stereo unspecified)"
  EC50: "14.2 µM (active)"
- compound: "Cc1ccc2nsnc2c1NS(=O)(=O)c1c(C)ccc2nsnc12"
  EC50: "24.8 µM (active)"
- compound: "O=C(O)c1ccc(S(=O)(=O)/N=C2\\C=C(Nc3ccccc3F)C(=O)c3ccccc32)cc1"
  EC50: "0.0663 µM (active)"
- compound: "CCOc1ccccc1C1C(C#N)=C(N)Nc2onc(-c3ccccc3)c21 (stereo unspecified)"
  EC50: "1.39 µM (active)"
- compound: "O=C(c1ccc(Cl)cc1)c1c[nH]c(C(=O)C(Cl)(Cl)Cl)c1"
  EC50: "> 380 µM (inconclusive)"

Exam item: What measured EC50 goes with Cc1ccc(NC2=CC(=O)C(=O)c3ccccc32)cc1 ?
Marked response: 0.999 µM (active)

Exam item: Also need CC1=NN(c2ccc(S(=O)(=O)O)cc2Cl)C(=O)C1 , thanks.
Marked response: 9.45 µM (active)

Exam item: How about CCOc1ccc(S(=O)(=O)Nc2cc(SCC(=O)O)c(O)c3ccccc23)cc1 ?
Marked response: 4.23 µM (active)

Exam item: For Cc1[nH]n(-c2ccccc2)c(=O)c1/C=C1/C(=O)NN(c2ccc(F)c(Cl)c2)C1=O then?
Marked response: 12 µM (active)

Exam item: Quick one: O=C(CCl)Nc1sccc1C(=O)c1ccccc1
Marked response: 4.78 µM (active)

Exam item: Now this one: Cc1ccc(N2C(=O)C(Cl)=C(N3CCOCC3)C2=O)cc1Cl
Marked response: 2.61 µM (active)

====

Reported IC50 by item:
subject of test: Protein skinhead-1 (Caenorhabditis elegans, UniProt P34707)
Sequence (P34707 whole entry): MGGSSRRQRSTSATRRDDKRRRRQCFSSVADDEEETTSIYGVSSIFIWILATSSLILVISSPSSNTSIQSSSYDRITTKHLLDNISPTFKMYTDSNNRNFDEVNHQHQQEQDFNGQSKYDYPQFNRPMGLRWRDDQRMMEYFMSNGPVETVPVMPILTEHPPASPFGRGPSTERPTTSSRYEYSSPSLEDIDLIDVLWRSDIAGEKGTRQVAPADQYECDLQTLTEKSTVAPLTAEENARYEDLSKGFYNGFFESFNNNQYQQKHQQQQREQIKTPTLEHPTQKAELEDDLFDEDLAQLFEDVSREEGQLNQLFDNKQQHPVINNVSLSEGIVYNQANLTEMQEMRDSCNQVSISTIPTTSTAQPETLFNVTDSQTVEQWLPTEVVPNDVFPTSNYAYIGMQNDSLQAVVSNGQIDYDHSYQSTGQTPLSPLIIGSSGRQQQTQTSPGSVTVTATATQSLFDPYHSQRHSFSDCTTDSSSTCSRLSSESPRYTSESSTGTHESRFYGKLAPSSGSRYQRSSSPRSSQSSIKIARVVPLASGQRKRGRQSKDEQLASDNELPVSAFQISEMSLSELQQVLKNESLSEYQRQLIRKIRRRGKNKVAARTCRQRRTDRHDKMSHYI
Format: functional
Activity calls are given as the source filed them.

These solved cases illustrate the format of a correct answer.
- compound: "Fc1cccc(F)c1/C=C/c1ccc2ccccc2n1"
  subject of test: "Protein skinhead-1 (Caenorhabditis elegans, UniProt P34707)"
  IC50: "36.8 µM (active)"
- compound: "O=[N+]([O-])c1cccc(-c2noc(-c3ccco3)n2)c1"
  subject of test: "Protein skinhead-1 (Caenorhabditis elegans, UniProt P34707)"
  IC50: "> 100 µM (inactive)"
- compound: "CC(=O)c1cccc(NS(=O)(=O)c2ccc3c(c2)oc(=O)n3C)c1"
  subject of test: "Protein skinhead-1 (Caenorhabditis elegans, UniProt P34707)"
  IC50: "> 100 µM (inactive)"

Exam item: Record request: IC50 value, item Cc1cc(C)n(Cc2ccc(C(=O)NCc3ccco3)o2)n1
Marked response: > 100 µM (inactive)

Exam item: Param item: Cc1cc(NC(=O)CSc2nc3ccccc3c(=O)n2Cc2ccc(F)cc2)no1
Marked response: 82.4 µM (inactive)

Exam item: Now consider COc1cccc(C(c2sc3ncnn3c2O)N2CC(C)OC(C)C2)c1 (stereo not drawn) and answer again.
Marked response: > 100 µM (inactive)

Exam item: Now consider CCN(CC)c1ccc(/C=c2\sc3nc4ccccc4n3c2=O)c(O)c1 and answer again.
Marked response: > 100 µM (inactive)

Exam item: # iterate: Clc1cccc(OCc2nc(-c3ccncc3)no2)c1
Marked response: 26.6 µM (active)
